B1: EHMT1 (parent)
chain: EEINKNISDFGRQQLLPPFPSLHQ

Variants of: B1
Assay: protein stability index of a GFP-peptide fusion (GPS, HEK-293T) (PSI 1-6); higher = more stable;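 also: lentivirally expressed fusions sorted by FACS into six bins by GFP to DsRed ratio, PSI derived from sequencing read proportions per bin multiplied by bin number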
Conditions: c terminus: a fixed tail appended
assay-metric: protein stability index

[[record]]
variant_name = "Q14I"
assay_metric = "protein stability index"
quantitative_result = 2.77

[[record]]
variant_name = "R12M"
assay_metric = "protein stability index"
quantitative_result = 2.47

[[record]]
variant_name = "I3N"
assay_metric = "protein stability index"
quantitative_result = 3.31

[[record]]
variant_name = "K5G"
assay_metric = "protein stability index"
quantitative_result = 2.71

[[record]]
variant_name = "L15N"
assay_metric = "protein stability index"
quantitative_result = 2.87

[[record]]
variant_name = "P20S"
assay_metric = "protein stability index"
quantitative_result = 3.22

[[record]]
variant_name = "E2C"
assay_metric = "protein stability index"
quantitative_result = 2.35

[[record]]
variant_name = "P20V"
assay_metric = "protein stability index"
quantitative_result = 3.02

[[record]]
variant_name = "R12F"
assay_metric = "protein stability index"
quantitative_result = 2.23

[[record]]
variant_name = "L15P"
assay_metric = "protein stability index"
quantitative_result = 2.92

[[record]]
variant_name = "P17F"
assay_metric = "protein stability index"
quantitative_result = 2.02

[[record]]
variant_name = "E1A"
assay_metric = "protein stability index"
quantitative_result = 2.47

[[record]]
variant_name = "I7Q"
assay_metric = "protein stability index"
quantitative_result = 3.58

[[record]]
variant_name = "L22V"
assay_metric = "protein stability index"
quantitative_result = 3.21

[[record]]
variant_name = "Q13W"
assay_metric = "protein stability index"
quantitative_result = 2.23

[[record]]
variant_name = "E2M"
assay_metric = "protein stability index"
quantitative_result = 2.24

[[record]]
variant_name = "S21V"
assay_metric = "protein stability index"
quantitative_result = 2.82

[[record]]
variant_name = "I3D"
assay_metric = "protein stability index"
quantitative_result = 3.77

[[record]]
variant_name = "Q13L"
assay_metric = "protein stability index"
quantitative_result = 2.48

[[record]]
variant_name = "E1R"
assay_metric = "protein stability index"
quantitative_result = 2.55

[[record]]
variant_name = "E1D"
assay_metric = "protein stability index"
quantitative_result = 2.58

[[record]]
variant_name = "N6W"
assay_metric = "protein stability index"
quantitative_result = 1.76

[[record]]
variant_name = "Q14P"
assay_metric = "protein stability index"
quantitative_result = 2.39

[[record]]
variant_name = "I7T"
assay_metric = "protein stability index"
quantitative_result = 2.63

[[record]]
variant_name = "N6P"
assay_metric = "protein stability index"
quantitative_result = 2.92

[[record]]
variant_name = "Q14S"
assay_metric = "protein stability index"
quantitative_result = 2.62

[[record]]
variant_name = "L22H"
assay_metric = "protein stability index"
quantitative_result = 3.42

[[record]]
variant_name = "P20K"
assay_metric = "protein stability index"
quantitative_result = 3.3

[[record]]
variant_name = "S21A"
assay_metric = "protein stability index"
quantitative_result = 2.36

[[record]]
variant_name = "N6D"
assay_metric = "protein stability index"
quantitative_result = 3.15

[[record]]
variant_name = "P20A"
assay_metric = "protein stability index"
quantitative_result = 2.82

[[record]]
variant_name = "I7C"
assay_metric = "protein stability index"
quantitative_result = 2.88

[[record]]
variant_name = "F10R"
assay_metric = "protein stability index"
quantitative_result = 2.88

[[record]]
variant_name = "Q13I"
assay_metric = "protein stability index"
quantitative_result = 2.19

[[record]]
variant_name = "H23M"
assay_metric = "protein stability index"
quantitative_result = 2.48

[[record]]
variant_name = "H23P"
assay_metric = "protein stability index"
quantitative_result = 3.17

[[record]]
variant_name = "F10S"
assay_metric = "protein stability index"
quantitative_result = 3.4

[[record]]
variant_name = "Q13C"
assay_metric = "protein stability index"
quantitative_result = 2.06

[[record]]
variant_name = "R12A"
assay_metric = "protein stability index"
quantitative_result = 3.2

[[record]]
variant_name = "L16S"
assay_metric = "protein stability index"
quantitative_result = 3.73

[[record]]
variant_name = "P17W"
assay_metric = "protein stability index"
quantitative_result = 2.02

[[record]]
variant_name = "G11D"
assay_metric = "protein stability index"
quantitative_result = 2.97

[[record]]
variant_name = "S8W"
assay_metric = "protein stability index"
quantitative_result = 2.02

[[record]]
variant_name = "E2A"
assay_metric = "protein stability index"
quantitative_result = 2.3

[[record]]
variant_name = "F19D"
assay_metric = "protein stability index"
quantitative_result = 4.42

[[record]]
variant_name = "P17H"
assay_metric = "protein stability index"
quantitative_result = 2.52

[[record]]
variant_name = "P17N"
assay_metric = "protein stability index"
quantitative_result = 2.54

[[record]]
variant_name = "N6L"
assay_metric = "protein stability index"
quantitative_result = 1.97

[[record]]
variant_name = "E1S"
assay_metric = "protein stability index"
quantitative_result = 3.23

[[record]]
variant_name = "Q14F"
assay_metric = "protein stability index"
quantitative_result = 2.02

[[record]]
variant_name = "F10P"
assay_metric = "protein stability index"
quantitative_result = 3.31

[[record]]
variant_name = "E2N"
assay_metric = "protein stability index"
quantitative_result = 2.29

[[record]]
variant_name = "F19M"
assay_metric = "protein stability index"
quantitative_result = 4.19

[[record]]
variant_name = "L15T"
assay_metric = "protein stability index"
quantitative_result = 3.15

[[record]]
variant_name = "K5S"
assay_metric = "protein stability index"
quantitative_result = 2.84

[[record]]
variant_name = "D9I"
assay_metric = "protein stability index"
quantitative_result = 2.21

[[record]]
variant_name = "R12W"
assay_metric = "protein stability index"
quantitative_result = 2.24

[[record]]
variant_name = "Q24L"
assay_metric = "protein stability index"
quantitative_result = 3.78

[[record]]
variant_name = "Q24E"
assay_metric = "protein stability index"
quantitative_result = 4.23

[[record]]
variant_name = "Q14A"
assay_metric = "protein stability index"
quantitative_result = 2.74

[[record]]
variant_name = "Q24A"
assay_metric = "protein stability index"
quantitative_result = 2.42

[[record]]
variant_name = "S21F"
assay_metric = "protein stability index"
quantitative_result = 2.59

[[record]]
variant_name = "P18S"
assay_metric = "protein stability index"
quantitative_result = 3.12

[[record]]
variant_name = "P18D"
assay_metric = "protein stability index"
quantitative_result = 3.46

[[record]]
variant_name = "Q24G"
assay_metric = "protein stability index"
quantitative_result = 2.53

[[record]]
variant_name = "F19H"
assay_metric = "protein stability index"
quantitative_result = 3.69

[[record]]
variant_name = "P17Q"
assay_metric = "protein stability index"
quantitative_result = 3.27

[[record]]
variant_name = "L22Q"
assay_metric = "protein stability index"
quantitative_result = 3.65

[[record]]
variant_name = "L16F"
assay_metric = "protein stability index"
quantitative_result = 2.42

[[record]]
variant_name = "S8R"
assay_metric = "protein stability index"
quantitative_result = 2.71

[[record]]
variant_name = "N4Q"
assay_metric = "protein stability index"
quantitative_result = 2.7

[[record]]
variant_name = "L15S"
assay_metric = "protein stability index"
quantitative_result = 2.82

[[record]]
variant_name = "P18E"
assay_metric = "protein stability index"
quantitative_result = 3.66

[[record]]
variant_name = "Q13S"
assay_metric = "protein stability index"
quantitative_result = 2.75

[[record]]
variant_name = "K5W"
assay_metric = "protein stability index"
quantitative_result = 2.6

[[record]]
variant_name = "S8M"
assay_metric = "protein stability index"
quantitative_result = 2.72

[[record]]
variant_name = "E1W"
assay_metric = "protein stability index"
quantitative_result = 1.91

[[record]]
variant_name = "L16G"
assay_metric = "protein stability index"
quantitative_result = 3.85

[[record]]
variant_name = "I7R"
assay_metric = "protein stability index"
quantitative_result = 2.42

[[record]]
variant_name = "S21Q"
assay_metric = "protein stability index"
quantitative_result = 3.33

[[record]]
variant_name = "N6R"
assay_metric = "protein stability index"
quantitative_result = 2.1

[[record]]
variant_name = "S21L"
assay_metric = "protein stability index"
quantitative_result = 2.9

[[record]]
variant_name = "P18I"
assay_metric = "protein stability index"
quantitative_result = 2.87

[[record]]
variant_name = "G11I"
assay_metric = "protein stability index"
quantitative_result = 1.71

[[record]]
variant_name = "E2S"
assay_metric = "protein stability index"
quantitative_result = 2.35

[[record]]
variant_name = "L22F"
assay_metric = "protein stability index"
quantitative_result = 2.79

[[record]]
variant_name = "N6S"
assay_metric = "protein stability index"
quantitative_result = 3.15

[[record]]
variant_name = "N6E"
assay_metric = "protein stability index"
quantitative_result = 2.91

[[record]]
variant_name = "N4T"
assay_metric = "protein stability index"
quantitative_result = 2.33

[[record]]
variant_name = "P20E"
assay_metric = "protein stability index"
quantitative_result = 3.73

[[record]]
variant_name = "L16I"
assay_metric = "protein stability index"
quantitative_result = 2.82


The reported numbers originate from the supplement of paper PMC10567573.
